B1: PDZK1 (parent)
chain: FQAKKIPIVSSLADPLDTPPDSKE

Variants of: B1
Test: protein stability index of a GFP-peptide fusion (GPS, HEK-293T) (PSI 1-6); higher = more stable;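 further: lentivirally expressed fusions sorted by FACS into six bins by GFP to DsRed ratio, PSI derived from sequencing read proportions per bin multiplied by bin number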
Conditions: c terminus: a fixed tail appended
For each of the variants below, state its protein stability index.
One number for each entry.

variant.name | endpoint.label | measured.value
P15Y | protein stability index | 3.32

Please state, for each entry, its recorded protein stability index.
1. T18S
2. P15C
3. T18N
4. P19T

Response:
3.53
3.55
3.48
3.85
